- ASSAYED_TARGET: Gamma-aminobutyric acid receptor subunit alpha-1 (Rattus norvegicus, UniProt P62813); further: assay procedure not described here
- Sequence (P62813 whole entry): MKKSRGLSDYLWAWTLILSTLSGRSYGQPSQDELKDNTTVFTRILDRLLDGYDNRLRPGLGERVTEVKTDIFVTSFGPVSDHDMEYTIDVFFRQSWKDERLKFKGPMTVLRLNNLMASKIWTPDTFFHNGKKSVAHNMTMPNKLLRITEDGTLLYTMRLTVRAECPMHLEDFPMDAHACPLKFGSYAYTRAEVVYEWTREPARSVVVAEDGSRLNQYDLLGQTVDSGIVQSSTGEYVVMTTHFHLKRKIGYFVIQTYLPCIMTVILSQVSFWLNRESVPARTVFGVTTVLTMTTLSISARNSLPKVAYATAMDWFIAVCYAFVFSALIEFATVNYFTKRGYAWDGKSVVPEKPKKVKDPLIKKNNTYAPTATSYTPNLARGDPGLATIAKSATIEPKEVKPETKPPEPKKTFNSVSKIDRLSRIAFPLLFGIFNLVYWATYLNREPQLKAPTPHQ
- Format: functional
TEST_READOUT: AC50

The value of AC50 recorded for C#CCOc1ccc(N)cc1C(=O)NCCCC [PARSALMIDE] when tested on Gamma-aminobutyric acid receptor subunit alpha-1 (Rattus norvegicus, UniProt P62813) reads > 30 µM

The value of AC50 recorded for Cc1cc(C(C)(C)C)cc(C)c1CC1=NCCN1 [XYLOMETAZOLINE] when tested on Gamma-aminobutyric acid receptor subunit alpha-1 (Rattus norvegicus, UniProt P62813) reads > 30 µM

The value of AC50 recorded for CC(C)[C@H](N)C(=O)OCC(CO)OCn1cnc2c(=O)nc(N)[nH]c21 (stereo not given in full) [VALGANCICLOVIR] when tested on Gamma-aminobutyric acid receptor subunit alpha-1 (Rattus norvegicus, UniProt P62813) reads > 30 µM

The value of AC50 recorded for CCC(C)C(CC)C(N)=O (stereo not given) [VALNOCTAMIDE] when tested on Gamma-aminobutyric acid receptor subunit alpha-1 (Rattus norvegicus, UniProt P62813) reads > 30 µM

The value of AC50 recorded for CC(C)NCC(O)c1ccc(O)c(O)c1 (stereo not given) [ISOPROTERENOL] when tested on Gamma-aminobutyric acid receptor subunit alpha-1 (Rattus norvegicus, UniProt P62813) reads > 10 µM
